Experiment: Cytotoxicity against human doxorubicin-resistant K562/Adr cells in presence of 1 uM doxorubicin after 48 hrs by MTT assay
Type: cell-based
Would you kindly list IC50 for each of these compounds?

Fill in the blank: the reported IC50 of `COC(=O)CC(=O)O[C@@H]1CC[C@]2(C)[C@H]3CC[C@@H]4[C@@H]([C@]5(C)CCC(=O)O5)CC[C@@]4(C)[C@]3(C)CC[C@H]2C1(C)C` is ____.
26.5 µM

Cool, now `CC(=O)O[C@@H]1C[C@@H]2[C@@]3(C)CC[C@@H](O)C(C)(C)[C@@H]3CC[C@@]2(C)[C@]2(C)CC[C@H]([C@]3(C)CC[C@H](C(C)(C)O)O3)[C@@H]12`
15.3 µM

What about CC(C)(O)[C@H]1CC[C@@]2(C)C1CC[C@]1(C)[C@@H]2CC[C@@H]2[C@@]3(C)CCC(=O)C(C)(C)[C@@H]3CC[C@]21C (stereo not given in full) [HYDROXYHOPANONE] ?
> 100 µM

Repeat with CC1(C)[C@H](O)CC[C@]2(C)[C@H]3CC[C@@H]4[C@@H]([C@]5(C)CCC(=O)O5)CC[C@@]4(C)[C@]3(C)CC[C@@H]12 [CABRALEAHYDROXYLACTONE]
> 100 µM

// query: CC(C)=CCC[C@](C)(O)[C@H]1CC[C@]2(C)[C@@H]1CC[C@@H]1[C@@]3(C)CCC(=O)C(C)(C)[C@@H]3CC[C@]12C [DIPTEROCARPOL]
> 100 µM

Entry to check: C=C(C)[C@@H]1CC[C@]2(C(=O)O)CC[C@]3(C)[C@H](CC[C@@H]4[C@@]5(C)CCC(=O)C(C)(C)[C@@H]5CC[C@]43C)[C@@H]12 [BETUNOLIC ACID]
48.4 µM

What about CC(=O)O[C@@H]1C[C@@H]2[C@@]3(C)CC[C@@H](OC(=O)CC(=O)O)C(C)(C)[C@@H]3CC[C@@]2(C)[C@]2(C)CC[C@H]([C@]3(C)CC[C@H](C(C)(C)O)O3)[C@@H]12 [PAPYRIFERIC ACID] ?
34.5 µM

Record: `CC(C)(O)[C@H]1CC[C@@](C)([C@H]2CC[C@]3(C)[C@@H]2CC[C@@H]2[C@@]4(C)CC[C@@H](OC(=O)CC(=O)O)C(C)(C)[C@@H]4CC[C@]23C)O1`
42.5 µM

And what about the compound C=C(C)[C@@H]1CC[C@]2(C)[C@H](CC[C@@H]3[C@@H]([C@]4(C)CC[C@H](C(C)(C)O)O4)CC[C@]32C)[C@@]1(C)CCC(=O)OC [METHYL SHOREATE] ?
47.1 µM

Entry to check: CC1(C)C(=O)CC[C@]2(C)[C@H]3CC[C@@H]4[C@@H]([C@]5(C)CCC(=O)O5)CC[C@@]4(C)[C@]3(C)CC[C@@H]12 [CABRALELACTONE]
> 100 µM

###

Provide the reported IC50 of each item.
Experiment: Cytotoxicity against human doxorubicin-resistant K562/Adr cells in presence of 1 uM doxorubicin after 48 hrs by MTT assay
Type: cell-based
Note: unit µM is implicit; provide only the numeric part.

Recorded IC50 for `COC(=O)CC(=O)O[C@@H]1CC[C@]2(C)[C@H]3CC[C@@H]4[C@@H]([C@]5(C)CC[C@H](C(C)(C)O)O5)CC[C@@]4(C)[C@]3(C)CC[C@H]2C1(C)C` , please?
41.1

Moving on to the next molecule: `C=C(C)[C@@H]1CC[C@]2(C)[C@H](CCC3=C4CC(C)(C)CC[C@]4(C)CC[C@]32C)[C@@]1(C)CCC(=O)O`
24.8

Another molecule to look at: `C=C(C)[C@@H](O)CC[C@](C)(O)[C@H]1CC[C@]2(C)[C@@H]1CC[C@@H]1[C@@]3(C)CCC(=O)C(C)(C)[C@@H]3CC[C@]12C`
50.4

Again, but for `CC(=O)O[C@@H]1C[C@@H]2[C@@]3(C)CC[C@@H](OC(C)=O)C(C)(C)[C@@H]3CC[C@@]2(C)[C@]2(C)CC[C@H]([C@]3(C)CC[C@H](C(C)(C)O)O3)[C@@H]12`
23.9
